Target Desc: Fyn (UniProt P06241)
Sequence (P06241 whole entry, looked up): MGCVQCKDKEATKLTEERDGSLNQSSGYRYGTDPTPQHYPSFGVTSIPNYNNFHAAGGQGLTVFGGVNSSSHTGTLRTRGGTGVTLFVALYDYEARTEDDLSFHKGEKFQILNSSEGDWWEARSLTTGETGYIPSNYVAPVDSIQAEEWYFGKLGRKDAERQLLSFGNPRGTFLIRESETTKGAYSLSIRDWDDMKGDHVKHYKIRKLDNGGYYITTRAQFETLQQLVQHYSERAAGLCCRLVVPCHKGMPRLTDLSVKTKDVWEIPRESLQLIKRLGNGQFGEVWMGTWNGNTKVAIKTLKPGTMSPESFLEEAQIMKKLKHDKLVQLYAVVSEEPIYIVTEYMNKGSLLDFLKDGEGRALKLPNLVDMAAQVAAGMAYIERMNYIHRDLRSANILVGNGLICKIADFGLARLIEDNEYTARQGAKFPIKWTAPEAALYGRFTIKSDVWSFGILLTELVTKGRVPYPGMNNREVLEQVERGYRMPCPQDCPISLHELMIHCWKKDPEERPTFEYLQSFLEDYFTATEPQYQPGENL
Protocol Text: phosphorylation enrichment, bacterial display (enrichment ratio); higher = better substrate or ligand; peptides without Tyr show the background
Decide by phosphorylation enrichment: equal to or exceeding 0.5 means rule met, less means rule not met.

Reference set, count: 10
>  <Sequence String>
NKVQFYIPDMN [NCR1_Y84_K82Q]

>  <Class Assignment>
rule not met

$$$$
>  <Sequence String>
WPLKWYVPECI [ZAP70_Y506_A507V]

>  <Class Assignment>
rule not met

$$$$
>  <Sequence String>
ILGTFYETGSI [PAX2_Y73_R71T_YF]

>  <Class Assignment>
rule met

$$$$
>  <Sequence String>
TSAEGYQDVRD [ABLIM1_Y439_P434T]

>  <Class Assignment>
rule met

$$$$
>  <Sequence String>
GINDDHGQLKN [NBN_Y679_Y679H]

>  <Class Assignment>
rule met

$$$$
>  <Sequence String>
DCVRMYELVHR [GLE1_Y135_G130D]

>  <Class Assignment>
rule met

$$$$
>  <Sequence String>
AGGTRYRFVSQ [UCN3_Y95_R91G_YF]

>  <Class Assignment>
rule met

$$$$
>  <Sequence String>
VLDCHYPEDEV [C1QBP_Y188]

>  <Class Assignment>
rule not met

$$$$
>  <Sequence String>
FADIAYNFRQG [PAH_Y166_H170Q_YF]

>  <Class Assignment>
rule not met

$$$$
>  <Sequence String>
SNMPTYSGHFT [GRIN2A_Y1224]

>  <Class Assignment>
rule met

$$$$

Prompt: # check: phosphorylation enrichment of FAKSVYWENTL [NUP107_Y296_YF] is greater than or equal to 0.5
Response: rule met

Prompt: # check: phosphorylation enrichment of SMAKFYASGIA [ACADSB_Y373_E376G_YF] is greater than or equal to 0.5
Response: rule not met

Prompt: # check: phosphorylation enrichment of PTDGVYVMPTV [MYO7A_Y1668_S1666G] is greater than or equal to 0.5
Response: rule met

Prompt: # check: phosphorylation enrichment of ASKEPYYVRCI [MYO1D_Y585] is greater than or equal to 0.5
Response: rule met

###

Target Desc: c-Src SH2;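 note: peptide library displayed on the E. coli surface as eCPX fusions, selected cells deep-sequenced, score is each peptide's frequency after selection divided by its frequency in the input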
Protocol Text: SH2 binding enrichment of the phosphorylated peptide, bacterial display (enrichment ratio); higher = better substrate or ligand; peptides without Tyr show the background
Classification field. Basis: SH2 binding enrichment. Definitions: lo: < 0.5; med: ≥ 0.5 and < 0.7; hi: ≥ 0.7

Reference set, count: 3
>  <Sequence String>
AESPEHVHMFT [FAM111A_Y511_Y511H_YF]

>  <Class Assignment>
lo

$$$$
>  <Sequence String>
SPFMLYQFLKQ [RPAP3_Y567_D564Y_YF]

>  <Class Assignment>
hi

$$$$
>  <Sequence String>
NRLTDYYEPLL [BBS10_Y536]

>  <Class Assignment>
hi

$$$$

Prompt: Dear colleague, I would appreciate it if you could identify the bin for RSFLSYYTSHV [NEFL_Y442_P440L] and reply at your convenience.
Response: hi

Prompt: Dear colleague, I would appreciate it if you could identify the bin for QMWLKYSQSDL [SMC1A_Y714_R711W] and reply at your convenience.
Response: lo

Prompt: Dear colleague, I would appreciate it if you could identify the bin for CTLLPYYSAPV [DGKE_Y269_R273P] and reply at your convenience.
Response: hi

Source listed as the supplement of paper PMC10065799.
